Kindly state RAMPO Score for each of the entries shown.
target: T1, His-tagged P3028 peptide (PGE73) (human); assay: PEPSCAN ELISA, peptide on card
T1 construct: albumin-derived peptide, in solution at 0.5 ug/mL; not shown: His-tag
T1 peptide: VFDEFKPLVEEPQNLIK
Answers are plain numbers.

Example binders with recorded RAMPO Score:
KKLDTFMVKLSLFTER [SEQ ID NO: 321 KKLDTFMVKLSLFTER]; 712
KKLDTFFVKLSLFWER [SEQ ID NO: 386 KKLDTFFVKLSLFWER]; 374
KKLDQFFVKLSLFTER [SEQ ID NO: 308 KKLDQFFVKLSLFTER]; 535

## Task Name the reported RAMPO Score value associated with the binder KKLDTFFVKLSNFTER [SEQ ID NO: 354 KKLDTFFVKLSNFTER]
## Result 462

Where these numbers come from: patent US20170298096A1
